measure: melting point

{"columns": ["molecule", "measure", "reading"],
 "data": [
  ["COC(=O)[C@]1(C)CCC[C@]2(C)c3cc(Br)c4nc(-c5ccc6[nH]ccc6c5)[nH]c4c3CCC12 (some centres unmarked)", "melting point", "179 to 181 °C"],
  ["COC(=O)[C@]1(C)CCC[C@]2(C)c3cc(-c4cc(OC)c(OC)c(OC)c4)c4nc(-c5ccc(Cl)cc5)[nH]c4c3CCC12 (some centres unmarked)", "melting point", "168 to 170 °C"],
  ["COC(=O)[C@]1(C)CCC[C@]2(C)c3cc(-c4cc(OC)c(OC)c(OC)c4)c4nc(-c5ccccc5Cl)[nH]c4c3CCC12 (some centres unmarked)", "melting point", "157 to 159 °C"],
  ["COC(=O)[C@]1(C)CCC[C@]2(C)c3cc(-c4cc(OC)c(OC)c(OC)c4)c4nc(-c5ccc(C)cc5)[nH]c4c3CCC12 (some centres unmarked)", "melting point", "133 to 135 °C"],
  ["COC(=O)[C@]1(C)CCC[C@]2(C)c3cc(-c4cc(OC)c(OC)c(OC)c4)c4nc(-c5ccc6[nH]ccc6c5)[nH]c4c3CCC12 (some centres unmarked)", "melting point", "189 to 191 °C"],
  ["COC(=O)[C@]1(C)CCC[C@]2(C)c3cc(-c4cc(OC)c(OC)c(OC)c4)c4nc(-c5ccccc5)[nH]c4c3CCC12 (some centres unmarked)", "melting point", "153 to 155 °C"],
  ["COC(=O)[C@]1(C)CCC[C@]2(C)c3cc(Br)c4nc(-c5ccc(Br)cc5)[nH]c4c3CCC12 (some centres unmarked)", "melting point", "141 to 142 °C"],
  ["COC(=O)[C@]1(C)CCC[C@]2(C)c3cc(Br)c4nc(-c5cccc(F)c5)[nH]c4c3CCC12 (some centres unmarked)", "melting point", "142 to 144 °C"],
  ["COC(=O)[C@]1(C)CCC[C@]2(C)c3cc(Br)c4nc(-c5ccccc5Cl)[nH]c4c3CCC12 (some centres unmarked)", "melting point", "142 to 143 °C"],
  ["COC(=O)[C@]1(C)CCC[C@]2(C)c3cc(Br)c4nc(-c5ccccc5F)[nH]c4c3CCC12 (some centres unmarked)", "melting point", "138 to 139 °C"],
  ["COC(=O)[C@]1(C)CCC[C@]2(C)c3cc(Br)c4nc(-c5ccccc5)[nH]c4c3CCC12 (some centres unmarked)", "melting point", "123 to 125 °C"],
  ["COC(=O)[C@]1(C)CCC[C@]2(C)c3cc(Br)c4nc(-c5ccc(C)cc5)[nH]c4c3CCC12 (some centres unmarked)", "melting point", "143 to 145 °C"],
  ["COC(=O)[C@]1(C)CCC[C@]2(C)c3cc(Br)c4nc(-c5ccc(Cl)cc5)[nH]c4c3CCC12 (some centres unmarked)", "melting point", "139 to 141 °C"],
  ["COC(=O)[C@]1(C)CCC[C@]2(C)c3cc(-c4cc(OC)c(OC)c(OC)c4)c4nc(-c5ccc(F)cc5)[nH]c4c3CCC12 (some centres unmarked)", "melting point", "139 to 141 °C"]
]}

====

System: mouse colon cancer cell line (CT-26)
assay.explanation: MTT cytotoxic assay, CT-26
Assay type: cell-based
conditions: Mus musculus, CT26, 48 h, MTT, 48 h exposure; read-out: IC50 CT-26
Each entry below lists one item and its recorded IC50 value.
measure: IC50

{"columns": ["compound", "assay.system", "reading"],
 "data": [
  ["COC(=O)[C@]1(C)CCC[C@]2(C)c3cc(Br)c4nc(-c5ccccc5Cl)[nH]c4c3CCC12 (stereo partly drawn)", "mouse colon cancer cell line (CT-26)", "> 50 µM"],
  ["COC(=O)[C@]1(C)CCC[C@]2(C)c3cc(Br)c4nc(-c5ccc(Cl)cc5)[nH]c4c3CCC12 (stereo partly drawn)", "mouse colon cancer cell line (CT-26)", "> 50 µM"],
  ["COC(=O)[C@]1(C)CCC[C@]2(C)c3cc(-c4cc(OC)c(OC)c(OC)c4)c4nc(-c5ccc(Br)cc5)[nH]c4c3CCC12 (stereo partly drawn)", "mouse colon cancer cell line (CT-26)", "< 5 µM"],
  ["COC(=O)[C@]1(C)CCC[C@]2(C)c3cc(Br)c4nc(-c5ccccc5F)[nH]c4c3CCC12 (stereo partly drawn)", "mouse colon cancer cell line (CT-26)", "> 50 µM"],
  ["CC(C)c1ccc2c(c1)CC[C@H]1[C@](C)(C(=O)O)CCC[C@]21C [Compound 1, Dehydroabietic acid]", "mouse colon cancer cell line (CT-26)", "> 50 µM"],
  ["COC(=O)[C@]1(C)CCC[C@]2(C)c3cc(Br)c4nc(-c5ccc(OC)cc5)[nH]c4c3CCC12 (stereo partly drawn)", "mouse colon cancer cell line (CT-26)", "21.2 µM"],
  ["COC(=O)[C@]1(C)CCC[C@]2(C)c3cc(Br)c4nc(-c5ccccc5)[nH]c4c3CCC12 (stereo partly drawn)", "mouse colon cancer cell line (CT-26)", "6.34 µM"],
  ["COC(=O)[C@]1(C)CCC[C@]2(C)c3cc(-c4cc(OC)c(OC)c(OC)c4)c4nc(-c5cccc(F)c5)[nH]c4c3CCC12 (stereo partly drawn)", "mouse colon cancer cell line (CT-26)", "< 5 µM"],
  ["COC(=O)[C@]1(C)CCC[C@]2(C)c3cc(-c4cc(OC)c(OC)c(OC)c4)c4nc(-c5ccc(Cl)cc5)[nH]c4c3CCC12 (stereo partly drawn)", "mouse colon cancer cell line (CT-26)", "< 5 µM"]
]}

====

System: mouse colon cancer cell line (CT-26)
assay.explanation: MTT cytotoxic assay, CT-26
Type: cell-based
conditions: Mus musculus, CT26, 48 h, MTT, 48 h exposure; read-out: IC50 CT-26
# binning rule on IC50: interval 1: < 9 µM; interval 2: ≥ 9 µM and < 20 µM; interval 3: ≥ 20 µM

{"columns": ["compound", "assay.system", "label.class"],
 "data": [
  ["COC(=O)[C@]1(C)CCC[C@]2(C)c3cc(Br)c4nc(-c5cccc(F)c5)[nH]c4c3CCC12 (some centres unmarked)", "mouse colon cancer cell line (CT-26)", "interval 1"],
  ["COC(=O)[C@]1(C)CCC[C@]2(C)c3cc(Br)c4nc(-c5ccc(F)cc5)[nH]c4c3CCC12 (some centres unmarked)", "mouse colon cancer cell line (CT-26)", "interval 1"],
  ["COC(=O)[C@]1(C)CCC[C@]2(C)c3cc(Br)c4nc(-c5ccc(C)cc5)[nH]c4c3CCC12 (some centres unmarked)", "mouse colon cancer cell line (CT-26)", "interval 3"],
  ["COC(=O)[C@]1(C)CCC[C@]2(C)c3cc(-c4cc(OC)c(OC)c(OC)c4)c4nc(-c5ccc(OC)cc5)[nH]c4c3CCC12 (some centres unmarked)", "mouse colon cancer cell line (CT-26)", "interval 3"],
  ["COC(=O)[C@]1(C)CCC[C@]2(C)c3cc(-c4cc(OC)c(OC)c(OC)c4)c4nc(-c5ccccc5)[nH]c4c3CCC12 (some centres unmarked)", "mouse colon cancer cell line (CT-26)", "interval 1"],
  ["COC(=O)[C@]1(C)CCC[C@]2(C)c3cc(-c4cc(OC)c(OC)c(OC)c4)c4nc(-c5ccccc5F)[nH]c4c3CCC12 (some centres unmarked)", "mouse colon cancer cell line (CT-26)", "interval 2"],
  ["COC(=O)[C@]1(C)CCC[C@]2(C)c3cc(Br)c(N)c(N)c3CCC12 (some centres unmarked)", "mouse colon cancer cell line (CT-26)", "interval 3"],
  ["COC(=O)[C@]1(C)CCC[C@]2(C)c3cc(Br)c(C(C)C)cc3CCC12 (some centres unmarked)", "mouse colon cancer cell line (CT-26)", "interval 3"],
  ["COC(=O)Nc1nc2ccc(C(=O)c3cccs3)cc2[nH]1 [Nocodazole, nocodazole, reference compound]", "mouse colon cancer cell line (CT-26)", "interval 1"],
  ["COC(=O)[C@]1(C)CCC[C@]2(C)c3cc(-c4cc(OC)c(OC)c(OC)c4)c4nc(-c5ccc(C)cc5)[nH]c4c3CCC12 (some centres unmarked)", "mouse colon cancer cell line (CT-26)", "interval 2"],
  ["COC(=O)[C@]1(C)CCC[C@]2(C)c3cc(Br)c4nc(-c5ccc(Br)cc5)[nH]c4c3CCC12 (some centres unmarked)", "mouse colon cancer cell line (CT-26)", "interval 3"],
  ["COC(=O)[C@]1(C)CCC[C@]2(C)c3cc(-c4cc(OC)c(OC)c(OC)c4)c4nc(-c5ccccc5Cl)[nH]c4c3CCC12 (some centres unmarked)", "mouse colon cancer cell line (CT-26)", "interval 2"],
  ["COC(=O)[C@]1(C)CCC[C@]2(C)c3ccc(C(C)C)cc3CCC12 (some centres unmarked)", "mouse colon cancer cell line (CT-26)", "interval 3"]
]}
